# assayed.target: NMDAR2B expressing HEK cell membranes (Homo sapiens, UniProt Q05586+Q13224)
# Construct: expressed in transfected cells; host or cells: HEK cells (membrane extract)
# Sequence (Q13224 27-1484, other chains not shown): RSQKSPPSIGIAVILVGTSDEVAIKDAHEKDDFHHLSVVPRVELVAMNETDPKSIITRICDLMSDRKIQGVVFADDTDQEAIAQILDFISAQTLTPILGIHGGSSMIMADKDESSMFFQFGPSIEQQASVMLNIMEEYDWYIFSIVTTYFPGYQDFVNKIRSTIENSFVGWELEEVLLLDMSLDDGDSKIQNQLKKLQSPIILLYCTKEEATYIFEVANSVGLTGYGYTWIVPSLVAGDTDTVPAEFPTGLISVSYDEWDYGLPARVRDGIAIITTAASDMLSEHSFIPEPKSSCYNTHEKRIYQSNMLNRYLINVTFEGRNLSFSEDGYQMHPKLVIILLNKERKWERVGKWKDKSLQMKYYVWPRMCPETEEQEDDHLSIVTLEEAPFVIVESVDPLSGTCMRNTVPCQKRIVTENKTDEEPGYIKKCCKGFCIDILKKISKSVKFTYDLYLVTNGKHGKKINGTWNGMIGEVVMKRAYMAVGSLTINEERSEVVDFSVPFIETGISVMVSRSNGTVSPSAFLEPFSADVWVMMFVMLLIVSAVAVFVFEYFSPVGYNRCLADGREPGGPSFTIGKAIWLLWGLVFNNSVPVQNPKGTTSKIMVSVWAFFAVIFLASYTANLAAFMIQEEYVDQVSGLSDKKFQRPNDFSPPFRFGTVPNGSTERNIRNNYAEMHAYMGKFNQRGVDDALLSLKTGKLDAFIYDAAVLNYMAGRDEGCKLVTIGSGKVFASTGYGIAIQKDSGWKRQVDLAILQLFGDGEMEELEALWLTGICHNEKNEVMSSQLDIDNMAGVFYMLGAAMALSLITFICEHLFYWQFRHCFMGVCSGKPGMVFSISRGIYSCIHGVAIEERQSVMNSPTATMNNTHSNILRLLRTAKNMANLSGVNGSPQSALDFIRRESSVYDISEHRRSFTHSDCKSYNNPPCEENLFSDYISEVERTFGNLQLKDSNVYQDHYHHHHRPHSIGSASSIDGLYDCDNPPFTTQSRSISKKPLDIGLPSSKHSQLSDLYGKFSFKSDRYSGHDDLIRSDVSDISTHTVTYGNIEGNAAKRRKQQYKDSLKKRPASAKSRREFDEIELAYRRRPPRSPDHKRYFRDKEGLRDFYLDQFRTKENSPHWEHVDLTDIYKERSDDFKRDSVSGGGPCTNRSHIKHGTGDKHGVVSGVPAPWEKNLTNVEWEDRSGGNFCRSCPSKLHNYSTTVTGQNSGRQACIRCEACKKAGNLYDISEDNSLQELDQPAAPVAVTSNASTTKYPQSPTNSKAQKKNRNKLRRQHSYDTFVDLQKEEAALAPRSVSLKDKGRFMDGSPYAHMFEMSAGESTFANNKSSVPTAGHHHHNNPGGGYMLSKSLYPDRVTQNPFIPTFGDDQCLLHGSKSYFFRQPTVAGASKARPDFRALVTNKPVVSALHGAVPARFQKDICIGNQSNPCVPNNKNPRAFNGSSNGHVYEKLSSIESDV
# assay.name: NMDAR agonist assay, [3H]MK-801 binding, NMDAR2B
# Format: biochemical
# measurement.conditions: read-out: NMDAR2B: % maximal [3H]MK-801 binding relative to 1 mM glycine, 50 μM glutamate; relative to 1 mM glycine
parameter: Emax (%)
One number for each entry, in %.

Field Emax (entry CN1C2(CCC13CNC3=O)CNC2=O (stereo not shown) ) reads 0

Okay, next one:
Field Emax (entry CC(C)CN1C2(CCC13CNC3=O)CNC2=O (stereo not shown) ) reads 0

====

Assign half-life to each entry below.
# assay.name: IV pharmacokinetics
# Format: in vivo
# measurement.conditions: Sprague Dawley, rat, in vivo, iv, 2 mg/kg, Sprague Dawley rats, normal saline
# Procedure: Sprague Dawley rats were dosed intravenously using a normal saline formulation containing 2 mg/kg of the compounds identified in the below table. The table below summarizes the results of the IV pharmacokinetics.
Give bare numbers, in h.

Below: 3 molecules and their reported half-life.
Field half-life (entry CC(C)C(=O)N1C2(CCC13CNC3=O)CNC2=O (single isomer, unassigned) ) reads 3.68

Field half-life (entry C[C@@H](O)[C@@H](C(N)=O)N1CC2(CCC3(CN([C@H](C(N)=O)[C@@H](C)O)C3=O)N2C(=O)OC(C)(C)C)C1=O (stereo partly shown) ) reads 0.64

Field half-life (entry CC(C)(C)OC(=O)N1C(C(N)=O)CCC12CN(OCc1ccccc1)C2=O (single isomer, unassigned) ) reads 0.34

Okay, next one:
Field half-life (entry C[C@@H](O)[C@H](NC(=O)C1CCC2(CNC2=O)N1Cc1ccccc1)C(N)=O (single isomer, unassigned) ) reads 2.38

====

# assayed.target: NMDAR2A expressing HEK cell membranes (Homo sapiens, UniProt Q05586+Q12879)
# Construct: expressed in transfected cells; host or cells: HEK cells (membrane extract)
# Sequence (Q12879 23-1464, other chains not shown): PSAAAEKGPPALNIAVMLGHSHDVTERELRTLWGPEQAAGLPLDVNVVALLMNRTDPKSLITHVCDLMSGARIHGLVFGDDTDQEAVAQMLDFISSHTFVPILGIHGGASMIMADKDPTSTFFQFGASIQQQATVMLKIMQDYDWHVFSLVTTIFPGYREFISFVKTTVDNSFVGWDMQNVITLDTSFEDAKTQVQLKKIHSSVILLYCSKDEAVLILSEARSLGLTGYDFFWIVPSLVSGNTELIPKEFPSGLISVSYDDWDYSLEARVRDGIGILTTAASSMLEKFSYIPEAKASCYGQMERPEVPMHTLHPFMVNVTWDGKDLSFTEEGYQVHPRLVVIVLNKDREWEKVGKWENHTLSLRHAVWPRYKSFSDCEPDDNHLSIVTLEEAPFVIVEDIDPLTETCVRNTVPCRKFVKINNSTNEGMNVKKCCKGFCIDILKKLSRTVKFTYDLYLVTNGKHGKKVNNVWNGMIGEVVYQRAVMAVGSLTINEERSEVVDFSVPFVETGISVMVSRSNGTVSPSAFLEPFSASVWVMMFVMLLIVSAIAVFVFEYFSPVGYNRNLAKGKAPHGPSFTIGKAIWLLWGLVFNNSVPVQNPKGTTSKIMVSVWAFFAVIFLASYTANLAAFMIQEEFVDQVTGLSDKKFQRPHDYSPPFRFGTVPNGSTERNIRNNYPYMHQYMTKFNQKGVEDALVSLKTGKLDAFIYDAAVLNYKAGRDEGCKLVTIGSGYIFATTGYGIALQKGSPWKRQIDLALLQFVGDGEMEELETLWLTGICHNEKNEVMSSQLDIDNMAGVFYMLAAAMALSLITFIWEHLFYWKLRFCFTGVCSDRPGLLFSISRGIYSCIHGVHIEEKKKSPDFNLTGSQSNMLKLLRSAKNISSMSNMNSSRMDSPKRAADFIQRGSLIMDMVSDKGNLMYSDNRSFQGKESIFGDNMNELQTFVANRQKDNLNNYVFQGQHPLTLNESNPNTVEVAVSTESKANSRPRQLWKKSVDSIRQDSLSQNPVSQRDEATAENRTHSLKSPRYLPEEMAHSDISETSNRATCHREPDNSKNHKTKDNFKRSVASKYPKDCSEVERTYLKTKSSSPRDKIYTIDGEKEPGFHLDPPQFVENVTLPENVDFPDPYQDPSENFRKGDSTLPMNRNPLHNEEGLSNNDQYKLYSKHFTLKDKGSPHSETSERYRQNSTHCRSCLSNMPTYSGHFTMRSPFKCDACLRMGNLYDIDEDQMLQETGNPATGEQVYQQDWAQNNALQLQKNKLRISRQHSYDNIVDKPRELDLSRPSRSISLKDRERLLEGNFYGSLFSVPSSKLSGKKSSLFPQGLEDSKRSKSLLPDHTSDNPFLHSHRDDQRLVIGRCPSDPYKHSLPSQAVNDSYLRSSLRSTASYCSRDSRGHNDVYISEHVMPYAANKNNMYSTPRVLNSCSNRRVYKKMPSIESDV
# assay.name: NMDAR agonist assay, [3H]MK-801 binding, NMDAR2A
# Type: biochemical
# measurement.conditions: 50 μM glutamate; relative to 1 mM glycine; read-out: NMDAR2A: % maximal [3H]MK-801 binding relative to 1 mM glycine
Assign Emax to each entry below.

Field Emax (entry NC(=O)C1CCC2(CN(OCc3ccccc3)C2=O)N1 (single isomer, unassigned) ) reads < 100%

// for each compound below, give its Emax
1. CC(O)C(NCC1CCC2(CNC2=O)N1)C(N)=O (single isomer, unassigned)
2. C[C@@H](O)[C@H](NCC1CCC2(CNC2=O)N1C(=O)OC(C)(C)C)C(N)=O (some centres unmarked)
3. CNC(=O)[C@@H](NCC1CCC2(CNC2=O)N1C(=O)OC(C)(C)C)[C@@H](C)O (some centres unmarked)
4. NC(=O)C1CCC2(CNC2=O)N1Cc1ccccc1 (single isomer, unassigned)
5. C[C@@H](O)[C@H](NC(=O)C1CCC2(CNC2=O)N1C)C(N)=O (single isomer, unassigned)

Output line:
< 100%
0%
0%
< 100%
< 100%

// for each compound below, give its Emax
1. CNC(=O)C(NCC1CCC2(CN(OCc3ccccc3)C2=O)N1)C(C)O (single isomer, unassigned)
2. CC(C)C(=O)N1C[C@@H](C(N)=O)C[C@]12CNC2=O

Output line:
1. < 100%
2. < 100%
